Tested on: Fibroblast
Assay Method Text: Multiplex assay against human fibroblast
Format: toxicity, cell-based
Condition Details: 24 h, 10 µM, compound concentration 10 uM, replicate 2
Endpoint Label: Population Pyknosed Nuclei (%)
// units = %; emit number, no label

Problem: What does the record list as Population Pyknosed Nuclei (%) for CC(C)(O)C(=O)N1CCN(c2ccc(C(F)(F)F)c(C3=C(c4c[nH]c5ccccc45)C(=O)NC3=O)c2)CC1 ?
Result: 39

Problem: What does the record list as Population Pyknosed Nuclei (%) for Cc1cc(-c2ccc3c(c2)CC[C@H]3N2CC3(CCN(C(=O)Cc4cn5cc(C)sc5n4)CC3)C2)ncn1 [PF-5190457] ?
Result: 25

Problem: What does the record list as Population Pyknosed Nuclei (%) for Nc1nc(-c2ccco2)c2cnn(Cc3ccccc3F)c2n1 ?
Result: 11

Problem: What does the record list as Population Pyknosed Nuclei (%) for COc1cc(OC2CCN(C(C)=O)CC2)ccc1C(=O)N1CCC(N2C(=O)OCc3ccccc32)CC1 ?
Result: 17

Problem: What does the record list as Population Pyknosed Nuclei (%) for CC(C)C[C@H](CO)Nc1nc(S[C@@H](C)c2ccccc2)nc2nc(N)sc12 [AZD-8797] ?
Result: 19

Problem: What does the record list as Population Pyknosed Nuclei (%) for O=c1nc2[nH]c3ccccc3nc-2c(=O)[nH]1 [ALLOXAZINE] ?
Result: 21

Problem: What does the record list as Population Pyknosed Nuclei (%) for OCCCNc1cc(-c2ccnc(Nc3cccc(Cl)c3)n2)ccn1 ?
Result: 9

Problem: What does the record list as Population Pyknosed Nuclei (%) for COc1ccc2c(c1OCc1ccccc1)C[C@@H](C(=O)O)N(C(=O)C(c1ccccc1)c1ccccc1)C2 [OLODANRIGAN] ?
Result: 19

* * *

A collection of molecules and their measured Population Mitochondria Different-Phenotype (%)
Test system: Fibroblast
Assay Method Text: Multiplex assay against human fibroblast
Type: toxicity, cell-based
Condition Details: 24 h, 10 µM, compound concentration 10 uM, replicate 1
// units = %; emit number, no label

- Molecule: "CCCCCCNC(=O)Nc1ccc(S(=O)(=O)Nc2ccc(CCNC[C@H](O)COc3ccc(O)cc3)cc2)cc1"
  Numeric Value: 8

Problem: What does the record list as Population Mitochondria Different-Phenotype (%) for CC(C)(O)C(=O)N1CCN(c2ccc(C(F)(F)F)c(C3=C(c4c[nH]c5ccccc45)C(=O)NC3=O)c2)CC1 ?
Result: 30

Problem: What does the record list as Population Mitochondria Different-Phenotype (%) for COc1cc(Nc2ncc3c(n2)-c2ccc(Cl)cc2C(c2c(F)cccc2OC)=NC3)ccc1C(=O)O ?
Result: 24

Problem: What does the record list as Population Mitochondria Different-Phenotype (%) for COc1ccc2c(c1OCc1ccccc1)C[C@@H](C(=O)O)N(C(=O)C(c1ccccc1)c1ccccc1)C2 ?
Result: 3

Problem: What does the record list as Population Mitochondria Different-Phenotype (%) for O=C(O)CCC/C=C\CC1C(O)CC(O)C1/C=C/C(O)COc1cccc(Cl)c1 (stereo not drawn) ?
Result: 3

Problem: What does the record list as Population Mitochondria Different-Phenotype (%) for S=C(NCCCc1c[nH]cn1)NCCCN(Cc1ccc(Cl)c(Cl)c1)c1ccc(Br)cn1 ?
Result: 19

Problem: What does the record list as Population Mitochondria Different-Phenotype (%) for Cc1ccc(OCC(O)C(C)NC(C)C)c2c1CCC2.Cl (stereo not drawn) ?
Result: 13

Problem: What does the record list as Population Mitochondria Different-Phenotype (%) for N[C@](CC1c2ccccc2Oc2ccccc21)(C(=O)O)[C@H]1C[C@@H]1C(=O)O ?
Result: 3

Problem: What does the record list as Population Mitochondria Different-Phenotype (%) for CCn1c(-c2nc3cc(C(=O)N4CCCC(N)C4)ccc3n2C)cc2ccccc21.Cl (stereo not drawn) ?
Result: 22

Problem: What does the record list as Population Mitochondria Different-Phenotype (%) for CCc1nn2c(C)cc(C)nc2c1Cc1ccc(-c2nnc(C3CCNCC3)o2)cc1 ?
Result: 22

Problem: What does the record list as Population Mitochondria Different-Phenotype (%) for O=C(Nc1cc(-c2ccccc2)nn1-c1ccccc1F)c1ccc([N+](=O)[O-])cc1 ?
Result: 7

Problem: What does the record list as Population Mitochondria Different-Phenotype (%) for Nc1nc(CC(=O)Nc2ccc(CCNC[C@H](O)c3ccccc3)cc2)cs1 ?
Result: 4

Problem: What does the record list as Population Mitochondria Different-Phenotype (%) for COc1c(Nc2ccc(S(C)(=O)=O)nc2C)ncnc1OC1CCN(C(=O)OC(C)C)CC1 ?
Result: 5

Problem: What does the record list as Population Mitochondria Different-Phenotype (%) for O=c1nc2[nH]c3ccccc3nc-2c(=O)[nH]1 ?
Result: 2

Problem: What does the record list as Population Mitochondria Different-Phenotype (%) for Cc1nn(C)c2nc(NNC(=O)Nc3cc(Cl)nc(Cl)c3)cc(C(C)C)c12 ?
Result: 22

* * *

A collection of molecules and their measured Population Mitochondria Different-Phenotype (%)
System: HEK-293T
Assay Method Text: Multiplex assay against HEK293T
Format: toxicity, cell-based
Condition Details: human, 12 h, 1 µM, compound concentration 1 uM, replicate 2
// units = %; emit number, no label

- Molecule: "O=c1nc2[nH]c3ccccc3nc-2c(=O)[nH]1 [ALLOXAZINE]"
  Unit String: "%"
  Numeric Value: 66

Problem: Find the measured Population Mitochondria Different-Phenotype (%): item O=C(Nc1cc(-c2ccccc2)nn1-c1ccccc1F)c1ccc([N+](=O)[O-])cc1 , target or system HEK-293T.
Result: 48

Problem: Find the measured Population Mitochondria Different-Phenotype (%): item OCCCNc1cc(-c2ccnc(Nc3cccc(Cl)c3)n2)ccn1 , target or system HEK-293T.
Result: 88

Problem: Find the measured Population Mitochondria Different-Phenotype (%): item COc1ccc2c(c1OCc1ccccc1)C[C@@H](C(=O)O)N(C(=O)C(c1ccccc1)c1ccccc1)C2 [OLODANRIGAN] , target or system HEK-293T.
Result: 48

* * *

Tested on: Fibroblast
Assay Method Text: Multiplex assay against human fibroblast
Assay type: toxicity, cell-based
Condition Details: 48 h, 10 µM, compound concentration 10 uM, replicate 2
Endpoint Label: Population Pyknosed Nuclei (%)
// units = %; emit number, no label

Examples from the recorded data:
- Compound: "CCC(=O)OCC(=O)[C@@]1(OC(=O)CC)[C@@H](C)C[C@H]2[C@@H]3CCC4=CC(=O)C=C[C@]4(C)[C@@]3(Cl)[C@@H](O)C[C@@]21C [BECLOMETHASONE DIPROPIONATE]"
  Population Pyknosed Nuclei (%): 33
- Compound: "COc1cc(C(=O)N2CC[C@@H](O)[C@@H](N)C2)cc2nc(-c3cc4ccccc4n3CC3CC3)n(C)c12.Cl"
  Population Pyknosed Nuclei (%): 11
- Compound: "CN(C)C(=O)Cn1cc(-c2ccc(-c3nnc4ccccn34)cc2)cn1"
  Population Pyknosed Nuclei (%): 7
- Compound: "CCCCC[C@H](O)/C=C/[C@H]1[C@H](O)CC(=O)[C@@H]1CCCCCCC(=O)O [ALPROSTADIL]"
  Population Pyknosed Nuclei (%): 22

Problem: What does the record list as Population Pyknosed Nuclei (%) for Cc1c(Cc2ccc3ccccc3n2)c2cc(F)ccc2n1CC(=O)O [TIMAPIPRANT] ?
Result: 9

Problem: What does the record list as Population Pyknosed Nuclei (%) for COCCn1c(C)c(C)s/c1=N\C(=O)C1C(C)(C)C1(C)C ?
Result: 16

Problem: What does the record list as Population Pyknosed Nuclei (%) for COc1cc(Nc2ncc3c(n2)-c2ccc(Cl)cc2C(c2c(F)cccc2OC)=NC3)ccc1C(=O)O [ALISERTIB] ?
Result: 11

Problem: What does the record list as Population Pyknosed Nuclei (%) for CCc1nn2c(C)cc(C)nc2c1Cc1ccc(-c2nnc(C3CCNCC3)o2)cc1 ?
Result: 7

* * *

System: HEK-293T
Assay Method Text: Multiplex assay against HEK293T
Format: toxicity, cell-based
Condition Details: human, 48 h, 10 µM, compound concentration 10 uM, replicate 2
Param label: returns Criterion met when Population Mitotic Cells (%) < 50%, returns Criterion not met otherwise, including exact equality.

Sample answers from the record:
- Molecule: "C[C@H](NC(=O)CNC(=O)c1cccc(Cl)c1)c1ccccc1"
  Group Label: "Criterion not met"
- Molecule: "COc1cc(Nc2ncc3c(n2)-c2ccc(Cl)cc2C(c2c(F)cccc2OC)=NC3)ccc1C(=O)O [ALISERTIB]"
  Group Label: "Criterion met"
- Molecule: "COCCn1c(C)c(C)s/c1=N\\C(=O)C1C(C)(C)C1(C)C"
  Group Label: "Criterion not met"
- Molecule: "CC(C)C[C@H](CO)Nc1nc(S[C@@H](C)c2ccccc2)nc2nc(N)sc12 [AZD-8797]"
  Group Label: "Criterion met"
- Molecule: "COc1ccc2[nH]c(I)c(CCNC(C)=O)c2c1 [IODOMELATONIN]"
  Group Label: "Criterion not met"

Problem: Identify whether the molecule Cl.Cl.OCCOCCN1CCN(C(c2ccccc2)c2ccc(Cl)cc2)CC1 (centres undefined) [HYDROXYZINE HYDROCHLORIDE] records Population Mitotic Cells (%) below 50%.
Result: Criterion met

Problem: Identify whether the molecule CCCCCCNC(=O)Nc1ccc(S(=O)(=O)Nc2ccc(CCNC[C@H](O)COc3ccc(O)cc3)cc2)cc1 [L-755507] records Population Mitotic Cells (%) below 50%.
Result: Criterion met

Problem: Identify whether the molecule CCCCC[C@H](O)/C=C/[C@H]1[C@H](O)CC(=O)[C@@H]1CCCCCCC(=O)O [ALPROSTADIL] records Population Mitotic Cells (%) below 50%.
Result: Criterion not met
